Hey, just so you know, these numbers are from patent US20140357543A1.

Biological target: T1, alcalase (trade name "Alcalase 2.5L", Novozymes) (UniProt P00780)
T1 sequence (looked up): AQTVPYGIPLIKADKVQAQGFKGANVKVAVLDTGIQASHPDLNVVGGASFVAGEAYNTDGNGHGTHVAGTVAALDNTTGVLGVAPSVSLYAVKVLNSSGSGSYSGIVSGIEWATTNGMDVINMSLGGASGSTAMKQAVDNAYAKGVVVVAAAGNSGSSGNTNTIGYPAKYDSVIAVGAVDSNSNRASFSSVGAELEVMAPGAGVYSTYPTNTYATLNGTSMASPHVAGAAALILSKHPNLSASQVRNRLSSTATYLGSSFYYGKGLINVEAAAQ
Assay: cell-based or functional assay
Consider the following binders; for each one, report its Remaining activity (%) immediately after preparation.
Numbers only here, please. The scale is %.

Input line: I'd like to know its Remaining activity (%) immediately after preparation. The binder in question is proteinaceous protease inhibitor of SEQ ID NO:7 (protein) TDTGDHHNQKTEWPELVGKSVEEAKKVILQDKSEAQIVVLPVGTIVTAEYRIDRVRLFVDSLDKIAQVPRVG
Output line: 25

Input line: What value of Remaining activity (%) immediately after preparation has been reported for the following binder? proteinaceous protease inhibitor of SEQ ID NO:6 (protein) TDTGDHHNQKTEWPELVGKSVEEAKKVILQDKSEAQIIVLPVGTIVTMEYRIDRVRLFVDSLDKIAQVPRVG
Output line: 0

Input line: Suppose we examine the binder proteinaceous protease inhibitor of SEQ ID NO:2 (protein) TDTGDHHNQKTDWPELVGKSVEEAKKVILQDKSEAQIVVLPVGTIVTMEYRIDRVRLFVDSLDKIAQVPRVG ; what Remaining activity (%) immediately after preparation value has been reported?
Output line: 10

Input line: Name the reported Remaining activity (%) immediately after preparation value associated with the binder proteinaceous protease inhibitor of SEQ ID NO:25 (protein) TDTGDHHNQKTEWPELVGKSVEEAKKVILQDKSEAQIAVLPVGTIVTMEYRIDRVRLFVDSLDKIAQVPAVG
Output line: 1

Input line: Need Remaining activity (%) immediately after preparation of proteinaceous protease inhibitor of SEQ ID NO:20 (protein) TDTGDHHNQKTEWPELVGKSVEEAKKVILQDKSEAQIVVLPVGTIVTMEYRIDRVRLFVDSLDKIAQVPGVG , thanks.
Output line: 10
